- targetUnderTest: NaV1.7 (Homo sapiens)
- Construct: expressed in transfected cells; host or cells: HEK293 (tetracycline-inducible)
- assayProcedure: Manual patch clamp, internal block of NaV1.7 current
- Assay type: cell-based
- measurementConditions: % inhibition at 3 μM test concentration, compound in internal solution, HEK293 cells, read-out: Nav1.7 Intracellular Inhibition
Where a name gives a salt, the structure may show the parent alone.
measurementName: inhibition at 3 µM

>>> df
                                    compound        targetundertest  reportedvalue
 0  Cc1cccc(C)c1N(C)C(=O)C[N+]1(Cc2ccccc2)CCCCCC1 [Compound 38A, formate]  NaV1.7 (Homo sapiens)      70 to 90%
 1  CCC(C(=O)Nc1c(C)cccc1C)[N+]1(Cc2ccccc2O)CCCCC1 (centres unmarked) [Compound 28A, 2,2,2-trifluoroacetate]  NaV1.7 (Homo sapiens)          < 40%
 2  Cc1cccc(C)c1NC(=O)C[N+]1(Cc2ccccc2)CCCC(C(=O)N(C)C)C1.[Br-] (centres unmarked) [Compound 65A]  NaV1.7 (Homo sapiens)          > 90%
 3  COC(=O)C1CC[N+](CC(=O)Nc2c(C)cccc2C)(Cc2ccccc2)CC1.[Br-] (centres unmarked) [Compound 44A]  NaV1.7 (Homo sapiens)          > 90%
 4  CCC(C(=O)Nc1c(C)cccc1C)[N+]1(Cc2ccccc2)CCCCC1.[Br-] (centres unmarked)  NaV1.7 (Homo sapiens)      70 to 90%
 5  Cc1cccc(C)c1NC(=O)C[N+]1(Cc2ccccc2)CCCC1.[Br-]  NaV1.7 (Homo sapiens)          > 90%
 6  Cc1cccc(C)c1NC(=O)C[N+]1(Cc2ccccc2)CCCC(C(N)=O)C1.[Br-] (mixture of isomers) [Compound 53A]  NaV1.7 (Homo sapiens)      70 to 90%
 7  CCC(C(=O)Nc1c(C)cccc1C)[N+]1(Cc2ccc(OC)cc2)CCCCC1 (centres unmarked) [Compound 22A]  NaV1.7 (Homo sapiens)      70 to 90%
 8  CCC(C(=O)Nc1c(C)cccc1C)[N+]1(Cc2cnn(C)c2)CCCCC1.[Br-] (centres unmarked) [Compound 34A]  NaV1.7 (Homo sapiens)      70 to 90%
 9  Cc1cccc(F)c1NC(=O)C[N+]1(Cc2ccccc2)CCCCCC1.[Br-] [Compound 69A]  NaV1.7 (Homo sapiens)          > 90%
10  CCNC(=O)C1CCC[N+](CC(=O)Nc2c(C)cccc2C)(Cc2ccccc2)C1.[Br-] (centres unmarked) [Compound 54A]  NaV1.7 (Homo sapiens)          > 90%
11  Cc1cccc(C)c1NC(=O)C[N+]1(Cc2ccccc2)CCCC(C(=O)N2CCCCC2)C1 (centres unmarked) [Compound 63A]  NaV1.7 (Homo sapiens)          > 90%
12  Cc1cccc(C)c1C(=O)OCC[N+]1(Cc2ccccc2)CCCCCC1.[Br-] [Compound 82A]  NaV1.7 (Homo sapiens)      70 to 90%
13  CCc1cccc(C[N+]2(C(CC)C(=O)Nc3c(C)cccc3C)CCCCC2)c1 (centres unmarked) [Compound 20A]  NaV1.7 (Homo sapiens)          > 90%
14  CCC(=O)OC1CCC[N+](CC(=O)Nc2c(C)cccc2C)(Cc2ccccc2)C1.[Br-] (centres unmarked) [Compound 52A]  NaV1.7 (Homo sapiens)          > 90%
15  Cc1cccc(C)c1N1CCC([N+]2(Cc3ccccc3)CCCCC2)C1=O.[Br-] (centres unmarked) [Compound 89A]  NaV1.7 (Homo sapiens)      70 to 90%
16  CCOC(=O)C1CCC[N+](CC(=O)Nc2c(C)cccc2C)(Cc2ccccc2)C1.[Br-] (centres unmarked) [Compound 45A]  NaV1.7 (Homo sapiens)      70 to 90%
17  CCCOC(=O)N1CCC[N+](CC(=O)Nc2c(C)cccc2C)(Cc2ccccc2)CC1.[Br-] (centres unmarked) [Compound 68A]  NaV1.7 (Homo sapiens)          > 90%
18  Cc1cccc(C)c1N1CCC([N+]2(Cc3ccccc3)CCCCCCC2)C1=O.[Br-] (centres unmarked) [Compound 90A]  NaV1.7 (Homo sapiens)          > 90%
19  COc1cccc(C)c1NC(=O)C[N+]1(Cc2ccccc2)CCCCCC1 [Compound 71A]  NaV1.7 (Homo sapiens)      70 to 90%
20  CC[N+](CC)(CCCc1ccccc1)CC(=O)Nc1c(C)cccc1C.[Br-] [Compound 86A]  NaV1.7 (Homo sapiens)          > 90%
21  CCC(C(=O)Nc1c(C)cccc1C)[N+]1(Cc2ccccc2OC)CCCCC1 (centres unmarked) [Compound 24A]  NaV1.7 (Homo sapiens)          > 90%
22  Cc1cccc(-c2ccccc2)c1NC(=O)C[N+]1(Cc2ccccc2)CCCCCC1.[Br-] [Compound 76A]  NaV1.7 (Homo sapiens)          > 90%
23  Cc1cccc(C)c1NC(=O)C[N+]1(Cc2ccccc2)CCCC(F)(F)C1.[Br-] (centres unmarked) [Compound 32A]  NaV1.7 (Homo sapiens)          > 90%
24  CCN(CC)C(=O)C1CCC[N+](CC(=O)Nc2c(C)cccc2C)(Cc2ccccc2)C1 (centres unmarked) [Compound 66A]  NaV1.7 (Homo sapiens)      70 to 90%
25  Cc1cccc(C)c1NC(=O)C[N+]1(Cc2ccccc2)CCCCCC1.[Br-]  NaV1.7 (Homo sapiens)          > 90%
26  COC(=O)c1ccccc1C[N+]1(CC(=O)Nc2c(C)cccc2C)CCCCC1.[Br-] [Compound 37A]  NaV1.7 (Homo sapiens)      70 to 90%
27  Cc1cccc(C(C)C)c1NC(=O)C[N+]1(Cc2ccccc2)CCCCCC1.[Br-] [Compound 74A]  NaV1.7 (Homo sapiens)      70 to 90%
28  CCC(C(=O)Nc1c(C)cccc1C)[N+]1(Cc2ccccc2F)CCCCC1 (centres unmarked)  NaV1.7 (Homo sapiens)      70 to 90%
29  Cc1cccc(C)c1N1CCCC([N+]2(Cc3ccccc3)CCCCCC2)C1=O (centres unmarked) [Compound 93A]  NaV1.7 (Homo sapiens)      70 to 90%
30  Cc1cccc(C)c1NC(=O)C[N+]1(Cc2ccccc2)CCCC(C(=O)OC(C)C)C1 (mixture of isomers) [Compound 46A, trifluoroacetate salt]  NaV1.7 (Homo sapiens)          > 90%
31  Cc1cccc(C)c1N1CCCC([N+]2(Cc3ccccc3)CCCC2)C1=O.[Br-] (centres unmarked) [Compound 91A]  NaV1.7 (Homo sapiens)      40 to 70%

###

- targetUnderTest: NaV1.7 (Homo sapiens, UniProt Q15858)
- Construct: expressed in transfected cells; host or cells: HEK293 (tetracycline-inducible)
- Sequence (Q15858 whole entry): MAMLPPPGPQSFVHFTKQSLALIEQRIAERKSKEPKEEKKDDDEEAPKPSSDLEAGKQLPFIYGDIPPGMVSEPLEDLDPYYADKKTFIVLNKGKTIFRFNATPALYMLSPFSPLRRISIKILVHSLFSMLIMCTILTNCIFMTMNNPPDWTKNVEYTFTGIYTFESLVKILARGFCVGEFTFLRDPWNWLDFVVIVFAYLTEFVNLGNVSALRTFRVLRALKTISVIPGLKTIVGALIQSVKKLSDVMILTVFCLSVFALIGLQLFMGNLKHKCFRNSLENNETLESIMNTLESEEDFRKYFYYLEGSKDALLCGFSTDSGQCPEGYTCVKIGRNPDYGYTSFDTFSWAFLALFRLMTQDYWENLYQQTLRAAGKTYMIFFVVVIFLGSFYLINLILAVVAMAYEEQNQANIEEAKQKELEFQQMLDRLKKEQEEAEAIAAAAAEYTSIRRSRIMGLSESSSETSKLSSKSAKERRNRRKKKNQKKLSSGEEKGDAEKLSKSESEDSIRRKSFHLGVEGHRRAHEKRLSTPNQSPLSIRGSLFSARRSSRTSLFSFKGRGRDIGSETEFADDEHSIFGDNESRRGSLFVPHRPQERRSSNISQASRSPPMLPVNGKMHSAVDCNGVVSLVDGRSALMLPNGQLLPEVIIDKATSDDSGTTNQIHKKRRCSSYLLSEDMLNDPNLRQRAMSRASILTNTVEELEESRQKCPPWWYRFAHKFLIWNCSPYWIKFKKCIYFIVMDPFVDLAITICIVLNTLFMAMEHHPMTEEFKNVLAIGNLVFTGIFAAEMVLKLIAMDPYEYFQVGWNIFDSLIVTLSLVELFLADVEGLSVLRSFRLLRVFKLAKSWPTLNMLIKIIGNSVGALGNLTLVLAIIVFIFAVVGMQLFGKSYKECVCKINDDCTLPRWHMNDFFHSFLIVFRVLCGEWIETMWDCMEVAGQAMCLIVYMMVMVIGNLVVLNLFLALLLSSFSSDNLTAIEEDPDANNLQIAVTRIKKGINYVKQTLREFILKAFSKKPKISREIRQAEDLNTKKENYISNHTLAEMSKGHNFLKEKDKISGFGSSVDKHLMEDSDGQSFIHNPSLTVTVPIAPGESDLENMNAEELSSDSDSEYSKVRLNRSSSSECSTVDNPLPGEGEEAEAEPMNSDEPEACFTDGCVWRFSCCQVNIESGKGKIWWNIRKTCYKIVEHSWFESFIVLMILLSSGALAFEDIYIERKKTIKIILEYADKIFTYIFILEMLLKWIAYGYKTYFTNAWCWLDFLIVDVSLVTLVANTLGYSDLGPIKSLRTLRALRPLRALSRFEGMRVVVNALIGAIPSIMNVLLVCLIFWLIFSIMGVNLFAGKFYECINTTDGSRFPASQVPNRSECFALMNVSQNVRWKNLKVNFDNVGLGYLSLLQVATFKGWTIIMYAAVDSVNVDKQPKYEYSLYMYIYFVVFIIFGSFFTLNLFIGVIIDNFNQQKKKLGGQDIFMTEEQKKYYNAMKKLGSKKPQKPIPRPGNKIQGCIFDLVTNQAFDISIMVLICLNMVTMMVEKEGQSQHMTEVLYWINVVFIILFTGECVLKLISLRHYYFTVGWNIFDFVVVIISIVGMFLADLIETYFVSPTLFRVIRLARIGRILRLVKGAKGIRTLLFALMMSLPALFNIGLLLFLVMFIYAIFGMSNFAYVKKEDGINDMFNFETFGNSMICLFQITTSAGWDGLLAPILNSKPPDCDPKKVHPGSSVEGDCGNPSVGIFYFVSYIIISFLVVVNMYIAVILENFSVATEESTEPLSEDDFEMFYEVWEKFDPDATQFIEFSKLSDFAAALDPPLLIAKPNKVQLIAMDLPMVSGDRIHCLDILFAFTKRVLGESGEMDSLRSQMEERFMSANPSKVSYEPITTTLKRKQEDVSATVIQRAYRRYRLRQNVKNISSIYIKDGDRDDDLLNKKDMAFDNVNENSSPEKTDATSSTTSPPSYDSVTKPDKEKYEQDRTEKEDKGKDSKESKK
- assayProcedure: Automated patch clamp (Qube 384), internal block of NaV1.7
- Type: cell-based
- measurementConditions: IC50, compound in internal solution, HEK293 cells, read-out: Nav1.7 Intracellular Inhibition
- Source text: NaV1.7 was expressed in HEK293 cells upon induction with tetracycline. […] Before experiments, cells were washed with DPBS (VWR, Radnor, Pa.), digested with Detachin (VWR Radnor, Pa.) and then triturated 10 times in CHO Serum-Free Media (VWR Radnor, Pa.) to resuspend the cells and to break apart cell aggregates. Cells were counted and the final concentration was set at 2-5 million cells per mL. […]
Below is a list of entries, each paired with its recorded IC50 value.
measurementName: IC50

>>> print(df.to_string())
                                    compound  measurementname     reportedvalue
 0  CCC(=O)Oc1cccc(C)c1NC(=O)C[N+]1(Cc2ccccc2)CCCCCC1.[Br-] [Compound 80A]             IC50    300 to 1000 nM
 1  CCC(C(=O)Nc1c(C)cccc1C)[N+]1(Cc2ccccc2)CCCCC1 (centres unmarked)             IC50    300 to 1000 nM
 2  CCC(C(=O)Nc1c(C)cccc1C)[N+]1(Cc2ccccc2)CCCCCC1 (centres unmarked)             IC50          < 300 nM
 3  Cc1cccc(-c2ccccc2)c1NC(=O)C[N+]1(Cc2ccccc2)CCCCCC1.[Br-] [Compound 76A]             IC50   1000 to 3000 nM
 4  Cc1cccc(C(F)(F)F)c1NC(=O)C[N+]1(Cc2ccccc2)CCCCCC1 [Compound 73A]             IC50    300 to 1000 nM
 5  CCOC(=O)C1CCC[N+](CC(=O)Nc2c(C)cccc2C)(Cc2ccccc2)C1.[Br-] (centres unmarked) [Compound 45A]             IC50    300 to 1000 nM
 6  Cc1cccc(C)c1NC(=O)C[N+]1(Cc2ccccc2)CCCC(C(=O)NCC(C)C)C1.[Br-] (centres unmarked) [Compound 58A]             IC50   1000 to 3000 nM
 7  CCC(C(=O)Nc1c(C)cccc1C)[N+]1(Cc2cccc(C#N)c2)CCCCC1 (centres unmarked)             IC50    300 to 1000 nM
 8  Cc1cccc(C)c1NC(=O)C[N+]1(Cc2ccccc2)CCCC(C(=O)N2CCCCCC2)C1 (centres unmarked) [Compound 64A]             IC50   1000 to 3000 nM
 9  CCc1cccc(C[N+]2(C(CC)C(=O)Nc3c(C)cccc3C)CCCCC2)c1 (centres unmarked)             IC50   1000 to 3000 nM
10  Cc1cccc(O)c1NC(=O)C[N+]1(Cc2ccccc2)CCCCCC1.[Br-] [Compound 79A, formate]             IC50   1000 to 3000 nM
11  CCCN(CCC)C(=O)C1CCC[N+](CC(=O)Nc2c(C)cccc2C)(Cc2ccccc2)C1 (centres unmarked) [Compound 67A]             IC50   1000 to 3000 nM
12  Cc1cccc(F)c1NC(=O)C[N+]1(Cc2ccccc2)CCCCCC1.[Br-] [Compound 69A]             IC50    300 to 1000 nM
13  CCCNC(=O)C1CCC[N+](CC(=O)Nc2c(C)cccc2C)(Cc2ccccc2)C1 (centres unmarked) [Compound 57A]             IC50    300 to 1000 nM
14  CCCc1cccc(C)c1NC(=O)C[N+]1(Cc2ccccc2)CCCCCC1.[Br-] [Compound 75A]             IC50   1000 to 3000 nM
15  Cc1cccc(C)c1NC(=O)C[N+]1(Cc2ccccc2)CCCC(C(=O)NC2CCCCC2)C1.[Br-] (centres unmarked) [Compound 61A]             IC50  3000 to 10000 nM
16  CCC(C(=O)Nc1c(C)cccc1C)[N+]1(Cc2cccc(OC)c2)CCCCC1 (centres unmarked)             IC50    300 to 1000 nM
